Below, each entry is listed alongside its reported pEC50.
molecular target: LHRH receptor (LHRH binding sites) on EFO-27 human ovarian cancer cells (human); assay: competition with [125I-Tyr8]BRU-2477, EFO-27 cells
pEC50: −log10 of the molar value. Non-standard residues stand in square brackets, D forms with d. Primed or numbered codes have the meaning given here. azaGly′ = aza-glycine residue at the C-terminus, with NH2; Bpa = N[C@@H](Cc1ccc(C(=O)c2ccccc2)cc1)C(=O)O; d2Nal = N[C@H](Cc1ccc2ccccc2c1)C(=O)O; DO3A10CM = not defined here; Gufe4 = not defined here; Hpgly = not defined here; azaGly = NNC(=O)O
propertyMeasured: pEC50

[
  {
    "binder": "XRWSHXWXPX (N-terminal DO3A10CM; Dbpa4 at 1; Darg at 6; Bpa4 at 8; azaGly-NH2 at 10) [BRU-3071]",
    "endpointResult": 6.51
  },
  {
    "binder": "DO3A10CM-[d2Nal][Gufe4]WSH[dR]W[Bpa]P[azaGly′]-NH2 (reading uncertain; also: printed as DO3A10CM-Dnal2-Gufe4-Trp-Ser-His-Darg-Trp-Bpa4-Pro-azaGly-NH2) [BRU-3058]",
    "endpointResult": 6.59
  },
  {
    "binder": "XXRWSHXWXPX (N-terminal DO3A10CM; Dlys linker before 1; Dnal2 at 1; Darg at 6; Bpa4 at 8; azaGly-NH2 at 10) [BRU-3099]",
    "endpointResult": 6.36
  },
  {
    "binder": "XRFSHXWXPX (N-terminal DO3A10CM; Dnal2 at 1; Darg at 6; Bpa4 at 8; azaGly-NH2 at 10) [BRU-3106]",
    "endpointResult": 6.37
  },
  {
    "binder": "XRWSXXWXPX (N-terminal DO3A10CM; Dnal2 at 1; Fur3ala at 5; Darg at 6; Bpa4 at 8; azaGly-NH2 at 10) [BRU-2960]",
    "endpointResult": 6.40
  },
  {
    "binder": "DO3A10CM-G[Hpgly]HWSH[dR]W[Bpa]P[azaGly]-NH2 (reading uncertain) [BRU-2797]",
    "endpointResult": 6.35
  },
  {
    "binder": "XHWSHXWXPX (AA1 Sar; AA6 Darg; AA8 Bpa4; AA10 azaGly-NH2) [BRU-2441]",
    "endpointResult": 6.85
  },
  {
    "binder": "DO3A10CM-[d2Nal]RWMH[dR]W[Bpa]P[azaGly]-NH2 (reading uncertain; also: printed as DO3A10CM-Dnal2-Arg-Trp-Met-His-Darg-Trp-Bpa4-Pro-azaGly-NH2) [BRU-2964]",
    "endpointResult": 6.66
  },
  {
    "binder": "XRWSHXWXXX (N-terminal DO3A10CM; Dnal2 at 1; Darg at 6; Bpa4 at 8; Pip at 9; azaGly-NH2 at 10) [BRU-2996]",
    "endpointResult": 6.46
  },
  {
    "binder": "XRWSHXWXP (Dnal2 at 1; Darg at 6; Bpa4 at 8; C-terminal Da15o3pt linker carrying DO3A10CM) [BRU-2991]",
    "endpointResult": 6.68
  },
  {
    "binder": "XRWSHXWXPX (N-terminal DO3A10CM; Qua3 at 1; Darg at 6; Bpa4 at 8; azaGly-NH2 at 10) [BRU-3057]",
    "endpointResult": 6.42
  },
  {
    "binder": "XRWSHXWXPX (N-terminal DO3A10CM; Dtyr at 1; Darg at 6; Bpa4 at 8; azaGly-NH2 at 10) [BRU-3054]",
    "endpointResult": 6.37
  },
  {
    "binder": "XHWSHXWXPX (Ac-Dnal2 at 1; Darg at 6; Bpa4 at 8; azaGly-NH2 at 10) [BRU-2803]",
    "endpointResult": 6.59
  },
  {
    "binder": "XRWSHXWXP (Sar at 1; Darg at 6; Bpa4 at 8; C-terminal Da18o36oc linker carrying DO3A10CM) [BRU-3043]",
    "endpointResult": 6.48
  }
]
